# System Under Test: HLA-B*58:01
# Test Details: IEDB peptide-MHC binding, purified MHC/direct/fluorescence; filed as Kd, often an IC50 or EC50 that approximates it; bounds were set here for any values at or beyond the usual limits of such assays
# Measurement Conditions: source organism: Salmonella enterica subsp. enterica serovar Typhi
pKd: −log10 of the molar value.
Assay Endpoint: pKd

Ask | Item under review: `LPLIVDTAA` . Reported pKd?
Reply | ≤ 4.70

* * *

# System Under Test: HLA-B*46:01
# Test Details: IEDB peptide-MHC binding, purified MHC/competitive/fluorescence; filed as Kd, often an IC50 or EC50 that approximates it; bounds were set here for any values at or beyond the usual limits of such assays
# Measurement Conditions: source organism: Pan troglodytes
Assay Endpoint: Kd

Ask | Fill in: Kd of `FLFDRLTNG` is ___
Reply | ≥ 20 µM

* * *

# System Under Test: HLA-A*24:03
# Test Details: IEDB peptide-MHC binding, purified MHC/direct/fluorescence; filed as Kd, often an IC50 or EC50 that approximates it; bounds were set here for any values at or beyond the usual limits of such assays
# Measurement Conditions: source organism: Toxoplasma gondii RH
pKd: −log10 of the molar value.
Assay Endpoint: pKd

Ask | Endpoint output: pKd of `LTMNLVSDI` . Value?
Reply | ≤ 4.70

* * *

# System Under Test: HLA-A*02:12
# Test Details: IEDB peptide-MHC binding, purified MHC/direct/fluorescence; filed as Kd, often an IC50 or EC50 that approximates it; bounds were set here for any values at or beyond the usual limits of such assays
# Measurement Conditions: source organism: Bacillus cereus 03BB108
Assay Endpoint: Kd (µM)
Reply with just the number (in µM).

Ask | I would be grateful if you could share the reported Kd for `KVQEWYLSY` .
Reply | 1.63

* * *

# System Under Test: HLA-B*15:01
# Test Details: IEDB peptide-MHC binding, purified MHC/competitive/fluorescence; filed as Kd, often an IC50 or EC50 that approximates it; bounds were set here for any values at or beyond the usual limits of such assays
# Measurement Conditions: source organism: Zaire ebolavirus
pKd: −log10 of the molar value.
Assay Endpoint: pKd

Ask | Bench note: what pKd did `RVPTVFHKK` show?
Reply | ≤ 4.70

New cases:
Ask | May I ask what pKd has been recorded for `HLSGWELAK` ?
Reply | ≤ 4.70

Ask | For the sequence `TVIYRGTTF` , what pKd is on record?
Reply | 7.27

* * *

# System Under Test: HLA-B*39:01
# Test Details: IEDB peptide-MHC binding, purified MHC/competitive/fluorescence; filed as Kd, often an IC50 or EC50 that approximates it; bounds were set here for any values at or beyond the usual limits of such assays
# Measurement Conditions: source organism: Burkholderia mallei NCTC 10229
Assay Endpoint: Kd

Ask | Kd for `RTFGQPLFF` ?
Reply | ≥ 20 µM

* * *

# System Under Test: HLA-A*03:01
# Test Details: IEDB peptide-MHC binding, purified MHC/direct/fluorescence; filed as Kd, often an IC50 or EC50 that approximates it; bounds were set here for any values at or beyond the usual limits of such assays
# Measurement Conditions: source organism: Cowpox virus
Assay Endpoint: Kd

Ask | Query: Kd; subject: `SWLITSGFR`
Reply | ≥ 20 µM

* * *

# System Under Test: HLA-A*03:01
# Test Details: IEDB peptide-MHC binding, purified MHC/competitive/radioactivity; filed as Kd, often an IC50 or EC50 that approximates it; bounds were set here for any values at or beyond the usual limits of such assays
# Measurement Conditions: source organism: Vaccinia virus WR
Assay Endpoint: Kd (nM)
Reply numerically in nM, unit not repeated.

Ask | # input sequence: `SSRVDRYSK` ; wanted: its Kd
Reply | 65.9

Ask | # Kd lookup, item `TVENNIDFLK`
Reply | 2650

---
Ask | Returns the measured Kd for the input sequence. Input: `VLKAMHDKK`
Reply | 263

Ask | So what's the measured Kd for this one? `DILSIIDAK`
Reply | 876

Ask | Which Kd is reported for this sequence? `VIEYAKSISK`
Reply | 129

* * *

# System Under Test: HLA-B*15:01
# Test Details: IEDB peptide-MHC binding, purified MHC/competitive/fluorescence; filed as Kd, often an IC50 or EC50 that approximates it; bounds were set here for any values at or beyond the usual limits of such assays
# Measurement Conditions: source organism: Salmonella enterica subsp. enterica serovar Typhi
Assay Endpoint: Kd
Don't forget the unit after the value.

Ask | Enter reported Kd observed with HLA-B*15:01 for `SVIDHIHYM`
Reply | 145 nM

* * *

# System Under Test: HLA-A*02:01
# Test Details: IEDB peptide-MHC binding, purified MHC/direct/fluorescence; filed as Kd, often an IC50 or EC50 that approximates it; bounds were set here for any values at or beyond the usual limits of such assays
# Measurement Conditions: source organism: Tetraodon nigroviridis
Assay Endpoint: Kd (nM)
Give your result in nM as a bare value.

Ask | Requested read-out: Kd. Entry: `FMDPGIFPR`
Reply | 9.9

* * *

# System Under Test: HLA-A*02:11
# Test Details: IEDB peptide-MHC binding, purified MHC/direct/fluorescence; filed as Kd, often an IC50 or EC50 that approximates it; bounds were set here for any values at or beyond the usual limits of such assays
# Measurement Conditions: source organism: Orthohantavirus tulaense
Assay Endpoint: Kd

Ask | Which value of Kd has been reported for `MSRKLHRYI` in the records?
Reply | ≥ 20 µM

* * *

# System Under Test: HLA-B*27:03
# Test Details: IEDB peptide-MHC binding, purified MHC/competitive/fluorescence; filed as Kd, often an IC50 or EC50 that approximates it; bounds were set here for any values at or beyond the usual limits of such assays
# Measurement Conditions: source organism: Plasmodium yoelii yoelii
Assay Endpoint: Kd

Ask | What Kd value was documented for this sequence, `KPPRGVLLY` ?
Reply | ≥ 20 µM

* * *

# System Under Test: HLA-C*14:02
# Test Details: IEDB peptide-MHC binding, purified MHC/competitive/fluorescence; filed as Kd, often an IC50 or EC50 that approximates it; bounds were set here for any values at or beyond the usual limits of such assays
# Measurement Conditions: source organism: Escherichia coli HS
Assay Endpoint: Kd (nM)
Please respond with the number in nM and leave the unit unwritten.

Ask | // returns reported Kd for input `YLREHIRAM`
Reply | 1.8

* * *

# System Under Test: HLA-A*03:19
# Test Details: IEDB peptide-MHC binding, purified MHC/competitive/fluorescence; filed as Kd, often an IC50 or EC50 that approximates it; bounds were set here for any values at or beyond the usual limits of such assays
# Measurement Conditions: source organism: Salmonella enterica subsp. enterica serovar Typhi
Assay Endpoint: pKd
Lab note — pKd values are minus log10 of concentrations in M.

Ask | Name the recorded pKd for `SVIDHIHYM` .
Reply | 6.01

* * *

# System Under Test: HLA-A*24:02
# Test Details: IEDB peptide-MHC binding, purified MHC/competitive/radioactivity; filed as Kd, often an IC50 or EC50 that approximates it; bounds were set here for any values at or beyond the usual limits of such assays
# Measurement Conditions: source organism: Mammarenavirus guanaritoense
Assay Endpoint: Kd

Here is how some sequences turned out for Kd.
Ask | Kd lookup needed for `HTNFESFTV` , thanks.
Reply | ≥ 77.5 µM

Ask | Data request, read-out Kd, for `FLDGVNLVA`
Reply | ≥ 77.5 µM

Then there is this sequence:
Ask | Can you look up the measured Kd of `LWPFIRINNL` for me?
Reply | 0.453 µM

* * *

# System Under Test: HLA-A*01:01
# Test Details: IEDB peptide-MHC binding, purified MHC/direct/fluorescence; filed as Kd, often an IC50 or EC50 that approximates it; bounds were set here for any values at or beyond the usual limits of such assays
# Measurement Conditions: source organism: Camelpox virus M-96
pKd: −log10 of the molar value.
Assay Endpoint: pKd

Ask | For `SLFTEQAFY` , what is its reported pKd?
Reply | ≤ 4.70

* * *

# System Under Test: HLA-B*40:01
# Test Details: IEDB peptide-MHC binding, purified MHC/direct/fluorescence; filed as Kd, often an IC50 or EC50 that approximates it; bounds were set here for any values at or beyond the usual limits of such assays
# Measurement Conditions: source organism: Influenza A virus (A/equine/New York/1/1999(H3N8))
Assay Endpoint: Kd

Ask | Recorded Kd for `VAGGTSSVY` , please?
Reply | ≥ 20 µM

* * *

# System Under Test: HLA-A*11:01
# Test Details: IEDB peptide-MHC binding, purified MHC/competitive/fluorescence; bounds were set here for any values at or beyond the usual limits of such assays
# Measurement Conditions: source organism: Sudan ebolavirus
pIC50: −log10 of the molar value.
Each entry below lists one item and its recorded pIC50 value.

Ask | Which pIC50 is reported with HLA-A*11:01 for this entry: `AIDFLLRRW` ?
Reply | ≤ 3.81

Next:
Ask | Request - read-out pIC50 | tested on HLA-A*11:01 | sequence `SATKRWGFR`
Reply | ≤ 3.93
